Each recorded value in this set is attributed to patent US20240246946A1.

IC50 listing for selected molecules.
Target: full length human TREX1 (Homo sapiens)
Construct: N-terminally His-Tev tagged full length human TREX1; made in house; host or cells: E. coli
Sequence (Q9NSU2 whole entry): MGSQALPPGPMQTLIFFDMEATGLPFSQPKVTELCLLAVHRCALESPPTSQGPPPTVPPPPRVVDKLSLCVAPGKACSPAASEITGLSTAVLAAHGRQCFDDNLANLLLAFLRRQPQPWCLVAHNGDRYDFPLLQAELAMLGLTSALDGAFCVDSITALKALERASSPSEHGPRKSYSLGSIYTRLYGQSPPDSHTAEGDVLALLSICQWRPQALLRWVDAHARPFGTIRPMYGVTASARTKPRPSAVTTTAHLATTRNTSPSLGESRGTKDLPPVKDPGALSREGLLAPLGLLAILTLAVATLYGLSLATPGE
Assay: hTREX1 Biochemical Assay (fluorescence, dsDNA substrate degradation)
Settings: biochemical, read-out: hTREX1 IC50

Reference set (5 entries):
[
  {
    "MOLECULE": "CC(c1nc(C(=O)Nc2cnoc2)c(O)c(=O)n1C)C(c1cnn(CCO)c1)c1ccccc1C#N (single isomer, unassigned) [Example 35 D2E2]",
    "IC50": "> 10 nM"
  },
  {
    "MOLECULE": "Cc1cnn(C(c2ccccc2Cl)C(C)c2nc(C(=O)Nc3cnoc3)c(O)c(=O)n2C)c1 (single isomer, unassigned) [Example 133 D1E1]",
    "IC50": "> 10 nM"
  },
  {
    "MOLECULE": "CC(c1nc(C(=O)Nc2cnoc2)c(O)c(=O)n1C)C(c1cnn(C)c1)c1cccnc1C#N (single isomer, unassigned) [Example 7 D1E1]",
    "IC50": "1 to 10 nM"
  },
  {
    "MOLECULE": "CC(c1nc(C(=O)Nc2cnoc2)c(O)c(=O)n1C)C(c1cnn(C(C)(C)CC#N)c1)c1cc(F)ccc1Cl (single isomer, unassigned) [Example 100 D1E1]",
    "IC50": "1 to 10 nM"
  },
  {
    "MOLECULE": "COC(C)(C)Cn1cc(C(c2ccccc2C#N)C(C)c2nc(C(=O)Nc3cnoc3)c(O)c(=O)n2C)cn1 (single isomer, unassigned) [Example 37 D2E2]",
    "IC50": "> 10 nM"
  }
]

## Task Tell me IC50 of COCCn1ncc(C(c2cc(F)ccc2C#N)C(C)c2nc(C(=O)Nc3cnoc3)c(O)c(=O)n2C)c1C (single isomer, unassigned) [Example 104 D2E1] when tested on full length human TREX1 (Homo sapiens).
## Result > 10 nM

## Task Tell me IC50 of Cc1nnc(C(c2ccccc2Cl)C(C)c2nc(C(=O)Nc3cnoc3)c(O)c(=O)n2C)o1 (single isomer, unassigned) [Example 156 D1E2] when tested on full length human TREX1 (Homo sapiens).
## Result > 10 nM
